molecular target: hSTING (Homo sapiens, UniProt Q86WV6, G230A/H232R/R293Q/R71H); construct: host or cells: THP1-Dual KO-IFNAR2 cells; test: STING reporter assay (luciferase) in THP1-Dual KO-IFNAR2 cells stimulated with 2′3′cGAMP; format: cell-based; conditions: 15 μM 2′3′cGAMP transfected, 24 h, class symbols
Sequence (Q86WV6 whole entry R71H/G230A/H232R/R293Q): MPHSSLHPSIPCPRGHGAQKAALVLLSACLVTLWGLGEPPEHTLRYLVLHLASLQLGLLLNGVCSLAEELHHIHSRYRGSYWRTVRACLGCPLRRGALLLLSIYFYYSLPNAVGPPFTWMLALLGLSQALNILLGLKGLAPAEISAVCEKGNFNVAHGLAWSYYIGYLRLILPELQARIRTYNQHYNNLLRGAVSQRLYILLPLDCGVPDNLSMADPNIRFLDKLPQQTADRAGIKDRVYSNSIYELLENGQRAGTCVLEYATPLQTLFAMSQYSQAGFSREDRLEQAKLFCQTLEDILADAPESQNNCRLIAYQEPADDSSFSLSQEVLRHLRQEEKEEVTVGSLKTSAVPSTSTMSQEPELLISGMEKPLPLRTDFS
measurement-kind: EC50

[[record]]
compound = "O=C(Nc1c[nH]c2ncc(F)cc12)N[C@H]1CC[C@@H](Oc2ccc(C(F)(F)F)cn2)CC1"
value_reported = "1000 to 5000 nM"

[[record]]
compound = "O=C(Nc1c[nH]c2cc(F)c(F)cc12)N[C@H]1CC[C@H](OC2CC(F)(F)C2)CC1"
value_reported = "1000 to 5000 nM"

[[record]]
compound = "O=C(Nc1c[nH]c2ccc(Cl)cc12)NC1CCN(Cc2ccc(C(F)(F)F)cn2)CC1"
value_reported = "1000 to 5000 nM"

[[record]]
compound = "O=C(Nc1c[nH]c2ccc(F)cc12)N[C@H]1CC[C@@H](Oc2ccc(C(F)(F)F)cn2)CC1"
value_reported = "200 to 1000 nM"

[[record]]
compound = "O=C(Nc1c[nH]c2ccc(F)cc12)N[C@H]1CC[C@H](Oc2ccc(C(F)(F)F)cn2)CC1"
value_reported = "200 to 1000 nM"

[[record]]
compound = "O=C(Nc1c[nH]c2ccc(Cl)cc12)N[C@H]1C[C@@H](Oc2ccc(C(F)(F)F)cn2)C1"
value_reported = "200 to 1000 nM"

[[record]]
compound = "O=C(Nc1c[nH]c2ccc(Cl)cc12)N[C@H]1CC[C@H](Oc2ccc(C(F)(F)F)cn2)CC1"
value_reported = "200 to 1000 nM"

[[record]]
compound = "O=C(Nc1c[nH]c2ccc(Cl)cc12)N[C@H]1CC[C@@H](Oc2ccc(C(F)(F)F)cn2)CC1"
value_reported = "200 to 1000 nM"

[[record]]
compound = "O=C(Nc1c[nH]c2ccc(Cl)cc12)N[C@H]1CC[C@H](N2CCC(F)(F)CC2)CC1"
value_reported = "5000 to 100000 nM"

[[record]]
compound = "O=C(Nc1c[nH]c2ccc(Cl)cc12)N[C@H]1CC[C@@H](N2CCC(F)(F)CC2)CC1"
value_reported = "5000 to 100000 nM"

[[record]]
compound = "O=C(Nc1c[nH]c2cc(F)c(F)cc12)NC1CC(OC2CCN(CC(F)(F)F)CC2)C1 (stereo not shown)"
value_reported = "1000 to 5000 nM"

[[record]]
compound = "O=C(Nc1c[nH]c2ccc(Cl)cc12)N[C@H]1C[C@H](Oc2ccc(C(F)(F)F)cn2)C1"
value_reported = "200 to 1000 nM"

[[record]]
compound = "O=C(Nc1c[nH]c2ccc(Cl)cc12)NC1CCN(c2ccc(C(F)(F)F)cn2)CC1"
value_reported = "200 to 1000 nM"


---

molecular target: hSTING (Homo sapiens, UniProt Q86WV6, G230A/H232R/R293Q/R71H); construct: host or cells: THP1-Dual KO-IFNAR2 cells; test: STING reporter assay (luciferase) in THP1-Dual KO-IFNAR2 cells stimulated with 2′3′cGAMP; format: cell-based; conditions: 15 μM 2′3′cGAMP transfected, 24 h, numeric bound given instead of a class symbol
# EC50 listing for each entry below
measurement-kind: EC50

[[record]]
item_smiles = "COCCN1CCC(O[C@H]2CC[C@H](NC(=O)Nc3c[nH]c4ccc(Cl)cc34)CC2)CC1"
value_reported = "> 30 µM"

[[record]]
item_smiles = "O=C(Nc1c[nH]c2ncc(F)cc12)N[C@H]1CC[C@H](Oc2ccc(C(F)(F)F)cn2)CC1"
value_reported = "> 30 µM"

